System: HepG2
METHOD_SUMMARY: cytotoxicity call (relative viability < 0.9)
CONDITION_SET: 10 µM
Screen size: about 39,000 compounds; about 3,300 (8.5%) were called active. This excerpt belongs to a sample that is enriched for actives.
Just give me one of these, please: active, inactive

Enquiry: Which result was noted for this compound in the test: `C[C@H]1CCCCO[C@@H](CN(C)Cc2ccc(C(F)(F)F)cc2)[C@@H](C)CN([C@@H](C)CO)C(=O)c2cc(NC(=O)c3ccccc3)ccc2O1`
Return: active

Enquiry: Try this compound next: `Cc1ccc(S(=O)(=O)Nc2ccc3c(c2)C(=O)N([C@H](C)CO)C[C@H](C)[C@H](CN(C)C(=O)Nc2ccc(F)cc2)OCCCC[C@H](C)O3)cc1`
Return: inactive

Enquiry: Moving on to `Cc1ccc(S(=O)(=O)Nc2ccc3c(c2)C(=O)N([C@@H](C)CO)C[C@@H](C)[C@@H](CN(C)C(=O)Nc2ccc(F)cc2)OCCCC[C@@H](C)O3)cc1`
Return: inactive

Enquiry: Then this compound: `Cc1ccc(S(=O)(=O)Nc2ccc3c(c2)C(=O)N([C@@H](C)CO)C[C@@H](C)[C@H](CN(C)C(=O)Nc2ccc(F)cc2)OCCCC[C@@H](C)O3)cc1`
Return: inactive

Enquiry: // next record `C[C@@H]1CCCCO[C@H](CN(C)S(C)(=O)=O)[C@H](C)CN([C@@H](C)CO)C(=O)c2cc(N(C)C)ccc2O1`
Return: inactive

Enquiry: And then `Cc1ccc(S(=O)(=O)Nc2ccc3c(c2)C(=O)N([C@@H](C)CO)C[C@H](C)[C@H](CN(C)C(=O)Nc2ccc(F)cc2)OCCCC[C@@H](C)O3)cc1` , what is it?
Return: inactive

Enquiry: Input `Cc1ccc(S(=O)(=O)Nc2ccc3c(c2)C(=O)N([C@@H](C)CO)C[C@H](C)[C@@H](CN(C)C(=O)Nc2ccc(F)cc2)OCCCC[C@H](C)O3)cc1`
Return: inactive

---

System: HepG2
METHOD_SUMMARY: cytotoxicity call (relative viability < 0.9)
CONDITION_SET: 10 µM
In all, about 39,000 compounds went through this assay and about 3,300 (8.5%) were called active. The sample as a whole holds a higher share of actives than the screen did.
ASSAY_READOUT: cytotoxicity call

{"columns": ["CHEMICAL_STRING", "MEASURED_TARGET", "DATA_VALUE"],
 "data": [
  ["Cc1cc(-c2cc(OC(=O)c3ccccc3)ccc2Cl)cc2nnc(Nc3ccc(OCCN4CCCC4)cc3)nc12", "HepG2", "inactive"],
  ["O=C(C[C@H]1C[C@@H]2c3cc(NC(=O)NC4CCCC4)ccc3O[C@@H]2[C@@H](CO)O1)NCCN1CCCCC1", "HepG2", "inactive"],
  ["O=C(N[C@@H](c1ccc(-c2ccccc2)cc1)c1cnccn1)C1CCN(Cc2ccc(Cl)c(Cl)c2)CC1", "HepG2", "inactive"]
]}

---

Test system: HepG2
METHOD_SUMMARY: cytotoxicity call (relative viability < 0.9)
CONDITION_SET: 10 µM
Out of some 39,000 compounds screened, about 3,300 (8.5%) were called active. Shown is part of a subset that was picked to be rich in actives.
Parameter call: string, one of true (1) (active), false (0) (inactive)

Enquiry: Record lookup: outcome of this test for `Cc1ccc(S(=O)(=O)N(C)C[C@H]2Oc3ccc(NC(=O)Nc4cccc5ccccc45)cc3CC(=O)N([C@@H](C)CO)C[C@H]2C)cc1` ?
Return: false (0)

Enquiry: Then what about the molecule `Cn1nc(CN2CCCC2=O)c2c1CNC2` ?
Return: false (0)

Enquiry: `Cc1ccc(S(=O)(=O)N(C)C[C@H]2Oc3ccc(NC(=O)Nc4cccc5ccccc45)cc3CC(=O)N([C@H](C)CO)C[C@H]2C)cc1` , same question.
Return: false (0)

Enquiry: Please answer likewise for `O=C(C[C@H]1CC[C@@H]2[C@H](COC[C@H](O)CN2S(=O)(=O)c2ccccc2Cl)O1)NCc1ccccc1Cl`
Return: false (0)

Enquiry: Repeat for the following molecule: `C[C@H]1CN([C@@H](C)CO)C(=O)Cc2cc(NC(=O)Nc3cccc4ccccc34)ccc2O[C@H]1CN(C)S(=O)(=O)c1ccc(Cl)cc1`
Return: true (1)

Enquiry: Thanks! And `COc1ccc(NC(=O)Nc2ccc3c(c2)C(=O)N([C@@H](C)CO)C[C@H](C)[C@@H](CN(C)C(=O)Nc2cccc4ccccc24)O3)cc1` ?
Return: false (0)

Enquiry: Quick one: `C[C@@H]1CCCCO[C@H](CN(C)S(C)(=O)=O)[C@H](C)CN([C@@H](C)CO)C(=O)c2cc(NS(C)(=O)=O)ccc2O1`
Return: false (0)

Enquiry: Repeat with `COc1ccc(S(=O)(=O)Nc2cccc3c2O[C@@H](CN(C)S(=O)(=O)c2ccc(OC)cc2)[C@@H](C)CN([C@@H](C)CO)C3=O)cc1`
Return: false (0)

Enquiry: One more molecule: `C[C@H](CO)N1C[C@H](C)[C@@H](CN(C)S(=O)(=O)c2ccc(Cl)cc2)Oc2ccc(NS(C)(=O)=O)cc2CC1=O`
Return: false (0)

Enquiry: Query `CO[C@H]1CN(C)C(=O)c2cc(NC(C)=O)ccc2OC[C@H](C)N(S(=O)(=O)c2cn(C)cn2)C[C@H]1C` next
Return: false (0)

Enquiry: Thanks! And `CC(C)NC(=O)N(C)C[C@H]1Oc2ccc(NC(=O)Nc3ccc4c(c3)OCO4)cc2C(=O)N([C@H](C)CO)C[C@@H]1C` ?
Return: false (0)

Enquiry: Proceed to `NC(=O)c1ncn([C@H]2O[C@@H](COP(=O)(O)O)[C@@H](O)[C@@H]2O)c1N`
Return: false (0)

Enquiry: # repeat for `O=C1CN(S(=O)(=O)Cc2ccccc2)C[C@H]2[C@H](c3ccc(C#Cc4ccc(F)cc4)cc3)[C@@H](CO)N12`
Return: false (0)

Enquiry: Same for `C[C@@H]1CN([C@H](C)CO)C(=O)Cc2cc(NC(=O)Nc3cccc4ccccc34)ccc2O[C@@H]1CN(C)S(=O)(=O)c1ccc(Cl)cc1`
Return: false (0)

Enquiry: Also `C[C@@H]1O[C@@H](O[C@H]2[C@H](O)[C@@H](O)[C@H](OC[C@H]3O[C@@H](OC(=O)[C@]45CCC(C)(C)C[C@@H]4C4=CC[C@H]6[C@@]7(C)CC[C@H](O[C@H]8OC[C@H](O)[C@H](O)[C@H]8O[C@H]8O[C@@H](C)[C@H](O)[C@@H](O)[C@H]8O)[C@@](C)(CO)[C@@H]7CC[C@@]6(C)[C@]4(C)CC5)[C@H](O)[C@@H](O)[C@@H]3O)O[C@@H]2CO)[C@H](O)[C@H](O)[C@H]1O` ?
Return: false (0)

---

Test system: HepG2
METHOD_SUMMARY: cytotoxicity call (relative viability < 0.9)
CONDITION_SET: 10 µM
The campaign covered roughly 39,000 compounds. About 3,300 (8.5%) were called active. This is one part of a sample in which actives are shown more often than they occur.
ASSAY_READOUT: cytotoxicity call

{"columns": ["CHEMICAL_STRING", "MEASURED_TARGET", "DATA_VALUE"],
 "data": [
  ["C[C@@H]1CN([C@@H](C)CO)C(=O)c2cc(NC(=O)Cc3ccccc3)ccc2O[C@@H]1CN(C)C(=O)Nc1cccc2ccccc12", "HepG2", "inactive"],
  ["C[C@@H]1CCCCO[C@@H](CN(C)Cc2ccc(Cl)c(Cl)c2)[C@@H](C)CN([C@@H](C)CO)C(=O)c2cc(NS(=O)(=O)c3ccccc3)ccc2O1", "HepG2", "inactive"],
  ["C[C@@H]1CN([C@H](C)CO)C(=O)c2cc(NS(=O)(=O)c3ccccc3)ccc2O[C@@H](C)CCCCO[C@H]1CN(C)Cc1ccc(Cl)c(Cl)c1", "HepG2", "inactive"]
]}

---

Tested on: HepG2
METHOD_SUMMARY: cytotoxicity call (relative viability < 0.9)
CONDITION_SET: 10 µM
About 3,300 (8.5%) of roughly 39,000 compounds were called active. The sample holds actives, similar compounds and a random draw of the others, so the mix is not that of the screen.
Permitted responses: Y (active), N (inactive)

Enquiry: // return assay outcome for `COc1ccc([C@H]([C@@H](O)Cc2ccccc2)N(C/C=C/[C@@H](O)c2ccccc2)[C@@H](Cc2ccccc2)C(OC)OC)cc1`
Return: N

Enquiry: Do the same for `COc1ccc([C@@H]([C@H](Cc2ccccc2)OC(C)=O)N2C[C@H](CC(=O)N(C)C)[C@@H]3C(=NO[C@H]3c3ccccc3)[C@@H]2Cc2ccccc2)cc1` please
Return: N

Enquiry: Continue with `COc1ccc([C@H]([C@H](Cc2ccccc2)OC(C)=O)N(C[C@@H](/C=C/c2ccccc2)CC(=O)N(C)C)[C@@H](Cc2ccccc2)C(OC)OC)cc1`
Return: Y

Enquiry: Next compound up: `O=C(CCCN1CCC(O)(c2ccc(Br)cc2)CC1)c1ccc(F)cc1`
Return: Y

Enquiry: And for `O=C(CCCN1CCN(c2ccccn2)CC1)c1ccc(F)cc1` ?
Return: N

Every entry's value here was drawn from the antibiotic and cytotoxicity screens of Wong et al. (2023).
